system: OVCAR-8; assay: NCI tumour cell line growth inhibition, 48 h
Active and inactive are the calls of the source. Rule as the data show it: active = GI50 up to about 1.1 µM and inactive = higher.
Labels: active, inactive

MOLECULE	LABEL
CCOP(=O)(OCC)/C(F)=C/c1ccccc1	inactive
O=C1CCC(=O)C12CCc1cccc(O)c12	inactive
O=C1/C(=C/c2ccccc2)CN(C(=O)/C=C/c2ccccc2)C/C1=C\c1ccccc1	inactive
O=C1c2ccsc2C(=O)c2sc(CO)cc21	active
CCOC(=O)C1=C(O)C(=O)c2cc(C)ccc2C1=O	inactive
C=CCN1C(=O)CS/C1=N\NC(=O)CSc1nc2ccccc2c(=O)n1CC	inactive
SC1=NC2=C(CSC/C2=C\c2cccc(Br)c2)C(c2cccc(Br)c2)N1 (stereo unspecified)	inactive
Cc1ccc(NC(=O)CCc2nnc(N)o2)cc1	inactive
CN(C)CC/C(=N\Nc1c(F)c(F)c(F)c(F)c1F)c1ccccc1	inactive
COc1ccc(/N=N/C(=N\c2ccc(Cl)cc2)c2ccc(N(CCC#N)CCC#N)cc2)cc1	inactive
CCOC(=O)NC(Nc1ccc([N+](=O)[O-])cc1)(C(F)(F)F)C(F)(F)F	inactive
